Values from the supplement of paper PMC9112550

# System: Escherichia coli TOP10
# ASSAY COMMENT: shrunken log2 fold change of peptide-encoding DNA abundance (4.5 h post-induction vs induction); higher = less antimicrobial activity (less host growth inhibition)
# ASSAY SETUP: time post-induction: 4.5 h; library: site-saturation at positions 5, 18, 19, 20
Would you mind labelling by shrunken log2 fold change? At or over 0.06 is Satisfied, under is Not satisfied.

Determine whether this sequence has shrunken log2 fold change no lower than 0.06: `RRIRNRPPRLPRPRPRPGWIPRP` Not satisfied

Determine whether this sequence has shrunken log2 fold change no lower than 0.06: `RRIRVRPPRLPRPRPRPYLKPRP` Not satisfied

Determine whether this sequence has shrunken log2 fold change no lower than 0.06: `RRIRERPPRLPRPRPRPAKVPRP` Not satisfied

Determine whether this sequence has shrunken log2 fold change no lower than 0.06: `RRIRRRPPRLPRPRPRPRTSPRP` Satisfied

Determine whether this sequence has shrunken log2 fold change no lower than 0.06: `RRIRARPPRLPRPRPRPEFLPRP` Satisfied

Determine whether this sequence has shrunken log2 fold change no lower than 0.06: `RRIRIRPPRLPRPRPRPQGNPRP` Not satisfied

Determine whether this sequence has shrunken log2 fold change no lower than 0.06: `RRIRGRPPRLPRPRPRPILRPRP` Satisfied

====

# System: Escherichia coli TOP10;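 further: peptides expressed intracellularly from a pBAD plasmid library in pooled LB shake-flask culture, induced with 0.3% L-arabinose, DNA abundance read by NGS, three biological replicates, DESeq2 with apeglm shrinkage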
# ASSAY COMMENT: shrunken log2 fold change of peptide-encoding DNA abundance (4.5 h post-induction vs induction); higher = less antimicrobial activity (less host growth inhibition)
# ASSAY SETUP: time post-induction: 4.5 h; library: site-saturation at positions 5, 18, 19, 20
ASSAY READOUT: shrunken log2 fold change
Please reply with the value in numeric form only.

Return reported shrunken log2 fold change; argument: `RRIRSRPPRLPRPRPRPAEHPRP` 0.0851

Return reported shrunken log2 fold change; argument: `RRIRMRPPRLPRPRPRPMENPRP` 0.76

Return reported shrunken log2 fold change; argument: `RRIRARPPRLPRPRPRPRAMPRP` 0.808

Return reported shrunken log2 fold change; argument: `RRIRQRPPRLPRPRPRPKTDPRP` -0.326

Return reported shrunken log2 fold change; argument: `RRIRLRPPRLPRPRPRPSVWPRP` 0.158

Return reported shrunken log2 fold change; argument: `RRIRVRPPRLPRPRPRPDTWPRP` -0.407

Return reported shrunken log2 fold change; argument: `RRIRIRPPRLPRPRPRPDWYPRP` -0.842

Return reported shrunken log2 fold change; argument: `RRIRIRPPRLPRPRPRPHIAPRP` -0.957

Return reported shrunken log2 fold change; argument: `RRIRWRPPRLPRPRPRPSNQPRP` -0.561

Return reported shrunken log2 fold change; argument: `RRIRKRPPRLPRPRPRPFDPPRP` -0.145

Return reported shrunken log2 fold change; argument: `RRIRNRPPRLPRPRPRPEYEPRP` -0.156

Return reported shrunken log2 fold change; argument: `RRIRWRPPRLPRPRPRPGMVPRP` 0.628

Return reported shrunken log2 fold change; argument: `RRIRHRPPRLPRPRPRPKCRPRP` -0.163

Return reported shrunken log2 fold change; argument: `RRIRLRPPRLPRPRPRPSIFPRP` -0.709

Return reported shrunken log2 fold change; argument: `RRIRQRPPRLPRPRPRPTWGPRP` 0.168

Return reported shrunken log2 fold change; argument: `RRIRGRPPRLPRPRPRPHRHPRP` 0.107

Return reported shrunken log2 fold change; argument: `RRIRQRPPRLPRPRPRPLIIPRP` -0.781

Return reported shrunken log2 fold change; argument: `RRIRNRPPRLPRPRPRPFVWPRP` -0.0187

Return reported shrunken log2 fold change; argument: `RRIRARPPRLPRPRPRPTYGPRP` -0.0482

Return reported shrunken log2 fold change; argument: `RRIRDRPPRLPRPRPRPDHMPRP` -0.0107

Return reported shrunken log2 fold change; argument: `RRIRYRPPRLPRPRPRPCAQPRP` -0.00639

Return reported shrunken log2 fold change; argument: `RRIRARPPRLPRPRPRPLGCPRP` 0.904

Return reported shrunken log2 fold change; argument: `RRIRHRPPRLPRPRPRPWAEPRP` -0.119

Return reported shrunken log2 fold change; argument: `RRIRLRPPRLPRPRPRPWPDPRP` -0.148

Return reported shrunken log2 fold change; argument: `RRIRDRPPRLPRPRPRPWLMPRP` -0.1

Return reported shrunken log2 fold change; argument: `RRIRNRPPRLPRPRPRPHMYPRP` 0.0526

Return reported shrunken log2 fold change; argument: `RRIRWRPPRLPRPRPRPIGAPRP` 0.0619

Return reported shrunken log2 fold change; argument: `RRIRSRPPRLPRPRPRPHPSPRP` 0.0251

Return reported shrunken log2 fold change; argument: `RRIRERPPRLPRPRPRPAFEPRP` -0.0208

Return reported shrunken log2 fold change; argument: `RRIRKRPPRLPRPRPRPITVPRP` 0.0944

Return reported shrunken log2 fold change; argument: `RRIRCRPPRLPRPRPRPCSAPRP` -0.277

Return reported shrunken log2 fold change; argument: `RRIRIRPPRLPRPRPRPLTLPRP` -0.22
